Data origin: ChEMBL document CHEMBL1148482

System: MT4
Assay: Antiviral activity against MT-4 cells infected with wild-type HIV-1
Conditions: Homo sapiens
Measured Attribute: IC50
For clarity, give the value followed by its unit.

Take a look at these entries with their results.
{"Compound": "CC(C)Nc1cccnc1N1CCN(C(=O)c2cc3cc(NS(C)(=O)=O)ccc3[nH]2)CC1 [DELAVIRDINE]", "Measured Attribute": "IC50", "Endpoint Value": "160 nM"}
{"Compound": "O=C1Nc2ccc(Cl)cc2[C@@](C#CC2CC2)(C(F)(F)F)O1 [EFAVIRENZ]", "Measured Attribute": "IC50", "Endpoint Value": "3.5 nM"}

Then this compound:
Looking for the measured IC50 of Cc1ccnc2c1NC(=O)c1cccnc1N2C1CC1 [NEVIRAPINE] , can you help?
96 nM
